This collection of values is drawn from ChEMBL document CHEMBL1142767.

Ki listing for selected compounds.
# TARGET_OR_TEST_SYSTEM: Adenosine receptor A2a (Rattus norvegicus, UniProt P30543)
# Sequence (P30543 whole entry): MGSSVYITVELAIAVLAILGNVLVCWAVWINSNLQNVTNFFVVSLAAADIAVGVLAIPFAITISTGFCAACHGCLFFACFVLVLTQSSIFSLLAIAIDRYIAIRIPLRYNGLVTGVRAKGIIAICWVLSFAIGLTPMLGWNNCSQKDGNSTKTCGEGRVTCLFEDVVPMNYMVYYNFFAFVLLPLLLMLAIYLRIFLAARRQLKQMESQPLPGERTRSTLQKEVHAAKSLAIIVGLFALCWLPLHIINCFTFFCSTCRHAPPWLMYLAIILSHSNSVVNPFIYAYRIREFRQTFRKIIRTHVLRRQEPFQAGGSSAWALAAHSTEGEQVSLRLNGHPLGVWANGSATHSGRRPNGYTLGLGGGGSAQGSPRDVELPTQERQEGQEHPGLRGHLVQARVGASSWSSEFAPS
# PROCEDURE_SUMMARY: In vitro ability to displace [3H]SCH-58261 from A2A adenosine receptor in Rat
# output: bare number, implied unit nM

COCCOc1cc(F)c(N2CCN(Cc3cccc(-c4cc5nc(-c6ccco6)nn5c(N)n4)c3)CC2)c(F)c1 = 6.4
Nc1nc(-c2cccc(CN3CCN(c4ccc(Cl)c(Cl)c4)CC3)c2)cc2nc(-c3ccco3)nn12 = 10.5
COc1ccc(-c2cc3nc(-c4ccco4)nn3c(N)n2)cc1OC = 7.3
Nc1nc(-c2cccc(CN3CCC(c4ccccc4)CC3)c2)cc2nc(-c3ccco3)nn12 = 4.6
COCCOc1ccc(N2CCN(Cc3cccc(-c4cc5nc(-c6ccco6)nn5c(N)n4)c3)CC2)cc1OC = 3.3
Nc1nc(-c2cccc(CN3CCN(c4nccs4)CC3)c2)cc2nc(-c3ccco3)nn12 = 2.4
COCCOc1cccc(N2CCN(Cc3cccc(-c4cc5nc(-c6ccco6)nn5c(N)n4)c3)CC2)c1 = 4
Nc1nc(-c2ccccn2)cc2nc(-c3ccco3)nn12 = 1.4
COc1ccc(-c2cc3nc(-c4ccco4)nn3c(N)n2)cc1 = 7.3
Nc1nc(-c2cccc(-c3ccccc3)c2)cc2nc(-c3ccco3)nn12 = 5.5

Lab book: Ki of "CN(CCc1ccccc1)Cc1cccc(-c2cc3nc(-c4ccco4)nn3c(N)n2)c1" noted as 3.6

Lab book: Ki of "Nc1nc(-c2cccnc2)cc2nc(-c3ccco3)nn12" noted as 6.6

Lab book: Ki of "COc1ccccc1-c1cc2nc(-c3ccco3)nn2c(N)n1" noted as 4.3

Lab book: Ki of "Nc1nc(-c2cccc(CO)c2)cc2nc(-c3ccco3)nn12" noted as 2.8

Lab book: Ki of "COCCOc1ccc(N2CCN(Cc3cccc(-c4cc5nc(-c6ccco6)nn5c(N)n4)c3)CC2)c(F)c1" noted as 2.7

Lab book: Ki of "Nc1nc(-c2ccncc2)cc2nc(-c3ccco3)nn12" noted as 1.9

Lab book: Ki of "COc1cccc(-c2cc3nc(-c4ccco4)nn3c(N)n2)c1OC" noted as 21.7

Lab book: Ki of "COCCOc1ccc(N2CCN(Cc3cccc(-c4cc5nc(-c6ccco6)nn5c(N)n4)c3)CC2)cc1C#N" noted as 1.1

Lab book: Ki of "Nc1nc(-c2ccccc2)cc2nc(-c3ccco3)nn12" noted as 7

Lab book: Ki of "Cc1cccc(-c2cc3nc(-c4ccco4)nn3c(N)n2)c1" noted as 3.7

Lab book: Ki of "N#Cc1cccc(-c2cc3nc(-c4ccco4)nn3c(N)n2)c1" noted as 5.4

----------
# System: Rattus norvegicus
# PROCEDURE_SUMMARY: Anti-cataleptic activity in Rat at oral dose of 3 mg/kg retested at 4 hr after administration
# Format: functional
Activity listing for selected molecules.
Just the number, please.

Completed entries (count: 3):
COCCOc1c(F)cc(N2CCN(Cc3cccc(-c4cc5nc(-c6ccco6)nn5c(N)n4)c3)CC2)cc1F = 47
COCCOc1ccc(N2CCN(Cc3cccc(-c4cc5nc(-c6ccco6)nn5c(N)n4)c3)CC2)c(F)c1 = 0
COCCOc1ccc(N2CCN(Cc3cccc(-c4cc5nc(-c6ccco6)nn5c(N)n4)c3)CC2)cc1OC = 39

Lab book: Activity of "Nc1nc(-c2cccc(CN3CCC(c4ccc(F)cc4)CC3)c2)cc2nc(-c3ccco3)nn12" noted as 20

Lab book: Activity of "COCCOc1ccc(N2CCN(Cc3cccc(-c4cc5nc(-c6ccco6)nn5c(N)n4)c3)CC2)cc1" noted as 65

Lab book: Activity of "Nc1nc(-c2cccc(CN3CCN(c4nccs4)CC3)c2)cc2nc(-c3ccco3)nn12" noted as 10

----------
# Tested on: Rattus norvegicus
# PROCEDURE_SUMMARY: Anti-cataleptic activity in Rat at oral dose of 3 mg/kg retested at 4 hr after administration
# Type: functional
MEASURED_QUANTITY: Activity
Just the number, please.

COCCOc1ccc(C2CCN(Cc3cccc(-c4cc5nc(-c6ccco6)nn5c(N)n4)c3)CC2)cc1 = 0
COCCOc1cccc(N2CCN(Cc3cccc(-c4cc5nc(-c6ccco6)nn5c(N)n4)c3)CC2)c1 = 53
COCCOc1ccc(N2CCN(Cc3cccc(-c4cc5nc(-c6ccco6)nn5c(N)n4)c3)CC2)c(Cl)c1 = 15

Let's switch to this molecule now.
Lab book: Activity of "COCCOc1ccc(N2CCN(Cc3cccc(-c4cc5nc(-c6ccco6)nn5c(N)n4)c3)CC2)cc1C#N" noted as 9

----------
# TARGET_OR_TEST_SYSTEM: Adenosine receptors; A1 & A2a (Rattus norvegicus) (UniProt P25099+P30543)
# Sequence (P25099 whole entry, looked up, one chain of several): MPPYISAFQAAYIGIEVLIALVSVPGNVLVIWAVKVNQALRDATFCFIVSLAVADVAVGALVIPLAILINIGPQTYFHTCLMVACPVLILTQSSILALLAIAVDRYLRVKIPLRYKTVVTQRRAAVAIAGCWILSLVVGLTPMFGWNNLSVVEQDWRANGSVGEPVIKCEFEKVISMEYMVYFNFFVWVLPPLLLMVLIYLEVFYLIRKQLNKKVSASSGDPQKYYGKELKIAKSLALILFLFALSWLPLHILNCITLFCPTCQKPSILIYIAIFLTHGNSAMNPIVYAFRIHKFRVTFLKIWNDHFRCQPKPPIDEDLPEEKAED
Would you mind labelling by Index? At or over 100 is 1, under is 0.

Some entries whose results are on file:
COc1cccc(-c2cc3nc(-c4ccco4)nn3c(N)n2)c1 = 0
Nc1nc(-c2cccc(CN3CCN(c4ccccc4)CC3)c2)cc2nc(-c3ccco3)nn12 = 0

Data request: // inclusive: Index at least 100? input: "Nc1nc(-c2ccccn2)cc2nc(-c3ccco3)nn12"
Data returned: 0

Data request: // inclusive: Index at least 100? input: "Nc1nc(-c2ccncc2)cc2nc(-c3ccco3)nn12"
Data returned: 0

Data request: // inclusive: Index at least 100? input: "Cc1ccccc1-c1cc2nc(-c3ccco3)nn2c(N)n1"
Data returned: 0

Data request: // inclusive: Index at least 100? input: "COCCOc1ccc(N2CCN(Cc3cccc(-c4cc5nc(-c6ccco6)nn5c(N)n4)c3)CC2)cc1OC"
Data returned: 1

Data request: // inclusive: Index at least 100? input: "CC(C)c1ccc(-c2cc3nc(-c4ccco4)nn3c(N)n2)cc1"
Data returned: 0

----------
# TARGET_OR_TEST_SYSTEM: Adenosine receptors; A1 & A2a (Rattus norvegicus) (UniProt P25099+P30543)
MEASURED_QUANTITY: Index
Just the number, please.

Completed entries (count: 10):
Nc1nc(-c2ccccc2)cc2nc(-c3ccco3)nn12 = 3
Nc1nc(-c2cccc(CN3CCC(c4ccc(F)cc4)CC3)c2)cc2nc(-c3ccco3)nn12 = 115
COCCOc1c(F)cc(N2CCN(Cc3cccc(-c4cc5nc(-c6ccco6)nn5c(N)n4)c3)CC2)cc1F = 338
COCCOc1ccc(C2CCN(Cc3cccc(-c4cc5nc(-c6ccco6)nn5c(N)n4)c3)CC2)cc1 = 202
Nc1nc(-c2cccc(-c3ccccc3)c2)cc2nc(-c3ccco3)nn12 = 82
COCCOc1ccc(N2CCN(Cc3cccc(-c4cc5nc(-c6ccco6)nn5c(N)n4)c3)CC2)c(C#N)c1 = 85
COc1ccccc1-c1cc2nc(-c3ccco3)nn2c(N)n1 = 27
Nc1nc(-c2cccc(CN3CCN(c4nccs4)CC3)c2)cc2nc(-c3ccco3)nn12 = 192
Nc1nc(-c2cccnc2)cc2nc(-c3ccco3)nn12 = 65
COCCOc1ccc(N2CCN(Cc3cccc(-c4cc5nc(-c6ccco6)nn5c(N)n4)c3)CC2)cc1 = 601

Measured Index (Adenosine receptors; A1 & A2a (Rattus norvegicus) (UniProt P25099+P30543)), entry "COc1ccc(-c2cc3nc(-c4ccco4)nn3c(N)n2)cc1" : 103

Measured Index (Adenosine receptors; A1 & A2a (Rattus norvegicus) (UniProt P25099+P30543)), entry "COc1ccc(-c2cc3nc(-c4ccco4)nn3c(N)n2)c(OC)c1OC" : 17

Measured Index (Adenosine receptors; A1 & A2a (Rattus norvegicus) (UniProt P25099+P30543)), entry "COCCOc1ccc(N2CCN(Cc3cccc(-c4cc5nc(-c6ccco6)nn5c(N)n4)c3)CC2)c(Cl)c1" : 204

Measured Index (Adenosine receptors; A1 & A2a (Rattus norvegicus) (UniProt P25099+P30543)), entry "COc1ccc(-c2cc3nc(-c4ccco4)nn3c(N)n2)c(OC)c1" : 98

Measured Index (Adenosine receptors; A1 & A2a (Rattus norvegicus) (UniProt P25099+P30543)), entry "COCCOc1ccc(N2CCN(Cc3cccc(-c4cc5nc(-c6ccco6)nn5c(N)n4)c3)CC2)c(C)c1" : 72

Measured Index (Adenosine receptors; A1 & A2a (Rattus norvegicus) (UniProt P25099+P30543)), entry "Nc1nc(-c2cccc(CN3CCC(c4ccccc4)CC3)c2)cc2nc(-c3ccco3)nn12" : 69

----------
# TARGET_OR_TEST_SYSTEM: Adenosine receptors; A1 & A2a (Rattus norvegicus) (UniProt P25099+P30543)
hey, just use label 1 if measured Index is less than 20, otherwise label 0

COc1ccc(-c2cc3nc(-c4ccco4)nn3c(N)n2)cc1OC = label 0
COCCOc1cccc(N2CCN(Cc3cccc(-c4cc5nc(-c6ccco6)nn5c(N)n4)c3)CC2)c1 = label 0
COc1ccc(OC)c(-c2cc3nc(-c4ccco4)nn3c(N)n2)c1 = label 0

Data request: Lab note: Index threshold 20. Does this molecule come in strictly under it? "COc1cc(-c2cc3nc(-c4ccco4)nn3c(N)n2)cc(OC)c1OC"
Data returned: label 0

Data request: Lab note: Index threshold 20. Does this molecule come in strictly under it? "COCCOc1ccc(N2CCN(Cc3cccc(-c4cc5nc(-c6ccco6)nn5c(N)n4)c3)CC2)c(F)c1"
Data returned: label 0
